assayProtocol: Cytotoxicity against human Hs445 cells after 72 hrs by MTS assay
Type: functional, cell-based
conditionsUsed: Hs 445, 72 h
assayReadout: pIC50
Units for pIC50: none; it is -log10 of a concentration expressed in mol/L.

C[C@H](NP(=O)(OC[C@H]1O[C@@H](n2c(I)c(F)c(=O)[nH]c2=O)[C@H](O)[C@@H]1O)Oc1cccc2ccccc12)C(=O)OCc1ccccc1 (some centres undefined): 6.15
O=c1[nH]c(=O)n([C@@H]2O[C@H](CO)[C@@H](O)[C@H]2O)c(I)c1F: 6.42
C[C@H](NP(=O)(OC[C@H]1O[C@@H](n2c(N=[N+]=[N-])c(F)c(=O)[nH]c2=O)[C@H](O)[C@@H]1O)Oc1ccccc1)C(=O)OCc1ccccc1 (some centres undefined): 4.64

// recorded pIC50 for CCCCCOC(=O)[C@H](C)NP(=O)(OC[C@H]1O[C@@H](n2c(I)c(F)c(=O)[nH]c2=O)[C@H](O)[C@@H]1O)Oc1ccccc1 (some centres undefined) : 5.59

###

targetEntity: Orotidine 5'-phosphate decarboxylase (Methanobacterium thermoautotrophicum, UniProt O26232)
Sequence (O26232 whole entry): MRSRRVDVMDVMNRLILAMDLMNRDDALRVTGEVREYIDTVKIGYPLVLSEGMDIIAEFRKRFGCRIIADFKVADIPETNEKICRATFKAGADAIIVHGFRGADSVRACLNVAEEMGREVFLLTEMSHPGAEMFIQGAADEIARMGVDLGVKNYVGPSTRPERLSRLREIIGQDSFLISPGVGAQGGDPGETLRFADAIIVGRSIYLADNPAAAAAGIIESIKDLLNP
assayReadout: pKi
Formally, pKi is defined as -log10 of the concentration c, with c in mol/L.

NC(=O)c1[nH]nc([C@@H]2O[C@H](CO)[C@@H](O)[C@H]2O)c1O: 5.21

Looking up "O=c1cnn([C@@H]2O[C@H](CO)[C@@H](O)[C@H]2O)c(=O)[nH]1" , I see its pKi listed as 4.96

###

targetEntity: Carboxypeptidase Y (Saccharomyces cerevisiae (strain ATCC 204508 / S288c) (Baker's yeast), UniProt P00729)
Sequence (P00729 whole entry): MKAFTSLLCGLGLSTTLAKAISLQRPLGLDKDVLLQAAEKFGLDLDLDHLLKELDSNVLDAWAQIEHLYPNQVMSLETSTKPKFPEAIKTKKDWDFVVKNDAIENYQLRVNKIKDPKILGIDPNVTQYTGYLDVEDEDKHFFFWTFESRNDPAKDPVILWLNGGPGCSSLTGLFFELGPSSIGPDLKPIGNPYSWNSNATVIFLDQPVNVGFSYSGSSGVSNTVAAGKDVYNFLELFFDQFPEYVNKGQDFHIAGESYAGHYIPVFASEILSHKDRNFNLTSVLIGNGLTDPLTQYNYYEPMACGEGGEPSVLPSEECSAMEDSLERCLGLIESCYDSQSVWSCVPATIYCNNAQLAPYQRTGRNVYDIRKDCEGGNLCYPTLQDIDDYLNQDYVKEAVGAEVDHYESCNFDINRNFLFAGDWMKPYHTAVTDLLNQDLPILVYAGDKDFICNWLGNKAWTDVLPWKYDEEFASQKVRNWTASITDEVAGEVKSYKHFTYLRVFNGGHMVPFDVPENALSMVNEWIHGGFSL
assayProtocol: Prodrug activation assessed as yeast carboxypeptidase Y mediated diastereoisomer formation at pH 7.6 by 31P NMR analysis
assayReadout: Drug metabolism

Measured Drug metabolism of CCCCCCOC(=O)[C@H](C)NP(=O)(OC[C@H]1O[C@@H](n2c(N=[N+]=[N-])c(F)c(=O)[nH]c2=O)[C@H](O)[C@@H]1O)Oc1ccccc1 (stereo partly specified) : 3.64 to 3.82 ppm

###

System: SW-620
assayProtocol: Cytotoxicity against human SW620 cells after 72 hrs by MTS assay
Format: functional, cell-based
conditionsUsed: SW-620, 72 h
The entries below are paired with their reported IC50.

The compound Cc1c(F)c(=O)[nH]c(=O)n1[C@@H]1O[C@H](COP(=O)(N[C@@H](C)C(=O)OCC(C)(C)C)Oc2cccc3ccccc23)[C@@H](O)[C@H]1O (stereo partly drawn) showed IC50 equal to > 50 µM

Reported IC50 ( C[C@H](NP(=O)(OC[C@H]1O[C@@H](n2c(N=[N+]=[N-])c(F)c(=O)[nH]c2=O)[C@H](O)[C@@H]1O)Oc1ccccc1)C(=O)OCc1ccccc1 (stereo partly drawn) ) = 13 µM

The compound Cc1c(F)c(=O)[nH]c(=O)n1[C@@H]1O[C@H](COP(=O)(N[C@@H](C)C(=O)OCc2ccccc2)Oc2cccc3ccccc23)[C@@H](O)[C@H]1O (stereo partly drawn) showed IC50 equal to > 50 µM

###

The compounds listed here are annotated with their IC50.
System: RL
assayProtocol: Cytotoxicity against human RL cells after 72 hrs by MTS assay
Assay type: functional, cell-based
# value in nM; strip the unit string

Look over these answered cases.
CCCCCOC(=O)[C@H](C)NP(=O)(OC[C@H]1O[C@@H](n2c(I)c(F)c(=O)[nH]c2=O)[C@H](O)[C@@H]1O)Oc1ccccc1 (some centres undefined): 800
O=c1[nH]c(=O)n([C@@H]2O[C@H](CO)[C@@H](O)[C@H]2O)c(I)c1F: 100

Note: attention shifts to another entry.
// C[C@H](NP(=O)(OC[C@H]1O[C@@H](n2c(N=[N+]=[N-])c(F)c(=O)[nH]c2=O)[C@H](O)[C@@H]1O)Oc1cccc2ccccc12)C(=O)OCc1ccccc1 (some centres undefined) : IC50 value = 12000
